The origin of these recorded values is patent US20080038809A1.

Each entry below carries its reported pIC50.
- study_target: GalNAc-T2 lectin domain (Homo sapiens)
- Construct: comprises amino acid residues 408-571 of GALNT2; made in house; host or cells: baculovirus (pAcGP67-A), virus made in Sf9, protein produced in High Five insect cells
- Sequence (Q10471 408-571): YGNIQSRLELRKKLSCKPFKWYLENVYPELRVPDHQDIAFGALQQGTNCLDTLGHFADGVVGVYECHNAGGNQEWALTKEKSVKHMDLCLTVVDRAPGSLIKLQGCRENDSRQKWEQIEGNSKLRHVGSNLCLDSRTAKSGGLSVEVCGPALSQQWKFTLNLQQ
- method_summary: Inhibition of GalNAc-T2 lectin domain (T2ld) binding to GalNAc-MUC1 glycopeptide, ELISA
Expect pIC50 as a plain number equal to -log10 of the molar concentration.

molecule | pIC50
CC(=O)N[C@H]1[C@@H](OCc2ccccc2)O[C@H](CO)[C@H](O)[C@@H]1O [BzlαGalNAc, benzyl-N-acetyl-alpha-D-galactosaminide] | 1.70

Proceed to the following item.
Item: CC(=O)N[C@H]1C(O)O[C@H](CO)[C@H](O)[C@@H]1O (some centres unmarked) | pIC50: 1.43
